B1: TLE6 (parent)
chain: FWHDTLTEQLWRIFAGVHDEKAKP

Variants of: B1
Test: protein stability index of a GFP-peptide fusion (GPS, HEK-293T) (PSI 1-6); higher = more stable;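 note: lentivirally expressed fusions sorted by FACS into six bins by GFP to DsRed ratio, PSI derived from sequencing read proportions per bin multiplied by bin number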
Details: c terminus: a fixed tail appended
Measure: protein stability index
Answers are plain numbers.

Sequence change: V17E
protein stability index: 1.83
//
Sequence change: P24E
protein stability index: 2.03
//
Sequence change: L6F
protein stability index: 1.58
//
Sequence change: P24R
protein stability index: 1.69
//
Sequence change: P24K
protein stability index: 1.78
//
Sequence change: Q9F
protein stability index: 1.97
//
Sequence change: H3Y
protein stability index: 1.91
//
Sequence change: D4Q
protein stability index: 2.29
//
Sequence change: A22K
protein stability index: 1.64
//
Sequence change: F14Q
protein stability index: 1.52

Batch lookup, protein stability index per entry.
1. W11K
2. K21H
3. L10W
4. W11Y
5. F1A
6. D4F
7. W11D

Key:
1: 2.52; 2: 1.69; 3: 2.42; 4: 2.87; 5: 2.28; 6: 3.05; 7: 2.82

Please give protein stability index, item by item, for the list that follows.
1. W11A
2. A15D
3. Q9R
4. L6Q
5. L10D

Key:
2.37
1.86
2.48
2.31
2.34
